test: AUClast in Wistar rat at 4 mg/kg, iv; assay type: ADME, organism-based; set-up: dose 4 mg/kg, route intravenous, time 0 - last; settings: in vivo
parameter_measured: AUC(0-t) (ng·h/mL)
Give bare numbers, in ng·h/mL.

Query: Given the entry `[2H]/C(c1nc[nH]c1C(C)(C)C)=c1/[nH]c(=O)/c(=C/c2ccccc2)[nH]c1=O` , report its measured AUC(0-t).
Result: 1330

----------
assay: Drug excretion in Wistar rat feces at 4 mg/kg, iv measured after 2 hrs; type: ADME, organism-based; details: faeces, read-out: Drug excretion
parameter_measured: dose excreted at 2 h

Query: Given the entry `[2H]/C(c1nc[nH]c1C(C)(C)C)=c1/[nH]c(=O)/c(=C/c2ccccc2)[nH]c1=O` , report its measured dose excreted at 2 h.
Result: 0%

----------
experiment: Apparent volume of distribution in Wistar rat at 4 mg/kg, iv; format: ADME, organism-based; details: in vivo, read-out: Vz
parameter_measured: Vd (L/kg)
Give bare numbers, in L/kg.

Query: Given the entry `[2H]/C(c1nc[nH]c1C(C)(C)C)=c1/[nH]c(=O)/c(=C/c2ccccc2)[nH]c1=O` , report its measured Vd.
Result: 16.4

----------
assay: Stability in rat liver microsomes at 50 uM after 60 mins in presence of NADPH by LC-MS/MS analysis; format: ADME, microsome; conditions: read-out: Stability
For each of the compounds below, state its remaining at 1 h, 50 µM.
Numbers only, in %.

INSERT INTO measurements (compound, val) VALUES
  ('[2H]/C(c1nc[nH]c1C(C)(C)C)=c1/[nH]c(=O)/c(=C/c2ccccc2)[nH]c1=O', 47.1);

From here, focus on the item given below.
Query: Given the entry CC(C)(C)c1[nH]cnc1/C=c1\[nH]c(=O)/c(=C/c2ccccc2)[nH]c1=O [PLINABULIN] , report its measured remaining at 1 h, 50 µM.
Result: 44.8

----------
assay: Stability in rat liver microsomes at 50 uM after 210 mins in presence of NADPH by LC-MS/MS analysis; format: ADME, microsome; conditions: liver microsomes, read-out: Stability
parameter_measured: remaining at 3.5 h, 50 µM (%)
Give bare numbers, in %.

Query: Given the entry `[2H]/C(c1nc[nH]c1C(C)(C)C)=c1/[nH]c(=O)/c(=C/c2ccccc2)[nH]c1=O` , report its measured remaining at 3.5 h, 50 µM.
Result: 31.5

----------
test: Cmax in Wistar rat at 8 mg/kg, iv; assay type: ADME, organism-based; set-up: dose 8 mg/kg, route intravenous; conditions: in vivo
parameter_measured: Cmax
Answer format reminder: number followed by unit.

Query: Given the entry `[2H]/C(c1nc[nH]c1C(C)(C)C)=c1/[nH]c(=O)/c(=C/c2ccccc2)[nH]c1=O` , report its measured Cmax.
Result: 20100 ng/mL

----------
assay: Drug excretion in Wistar rat urine at 4 mg/kg, iv measured after 2 hrs; type: ADME, organism-based; conditions: read-out: Drug excretion
parameter_measured: dose excreted at 2 h (%)
Answers are plain numbers, in %.

Query: Given the entry `[2H]/C(c1nc[nH]c1C(C)(C)C)=c1/[nH]c(=O)/c(=C/c2ccccc2)[nH]c1=O` , report its measured dose excreted at 2 h.
Result: 0.05

----------
Target: Cytochrome P450 1A2 (Homo sapiens, UniProt P05177)
Sequence (P05177 whole entry): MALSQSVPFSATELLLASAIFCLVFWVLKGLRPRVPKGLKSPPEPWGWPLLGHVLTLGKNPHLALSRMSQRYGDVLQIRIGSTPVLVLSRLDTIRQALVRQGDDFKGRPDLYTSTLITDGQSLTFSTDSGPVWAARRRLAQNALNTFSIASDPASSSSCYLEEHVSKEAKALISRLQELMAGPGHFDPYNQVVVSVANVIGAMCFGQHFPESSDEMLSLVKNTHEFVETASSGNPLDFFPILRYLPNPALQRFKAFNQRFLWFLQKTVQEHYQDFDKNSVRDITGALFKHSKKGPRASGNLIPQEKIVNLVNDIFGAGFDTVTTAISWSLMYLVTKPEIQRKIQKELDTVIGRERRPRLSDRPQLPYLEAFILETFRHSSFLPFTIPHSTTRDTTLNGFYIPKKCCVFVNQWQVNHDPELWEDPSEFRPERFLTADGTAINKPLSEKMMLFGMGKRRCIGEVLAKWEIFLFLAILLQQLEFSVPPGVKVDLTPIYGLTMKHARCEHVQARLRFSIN
For each of the compounds below, state its pIC50.
Numbers only, as −log10 of the molar value.

INSERT INTO measurements (smiles_str, val) VALUES
  ('[2H]/C(c1nc[nH]c1C(C)(C)C)=c1/[nH]c(=O)/c(=C/c2ccccc2)[nH]c1=O', 5.99);

From here, focus on the item given below.
Query: Given the entry `CC(C)(C)c1[nH]cnc1/C=c1\[nH]c(=O)/c(=C/c2ccccc2)[nH]c1=O` , report its measured pIC50.
Result: 5.91

----------
experiment: Stability in rat plasma at 1 uM after 120 mins by LC-MS/MS analysis; assay type: ADME, cell-free; conditions: read-out: Stability
parameter_measured: remaining at 2 h, 1 µM (%)
Answers are plain numbers, in %.

INSERT INTO measurements (smiles_str, parameter_measured, val) VALUES
  ('[2H]/C(c1nc[nH]c1C(C)(C)C)=c1/[nH]c(=O)/c(=C/c2ccccc2)[nH]c1=O', 'remaining at 2 h, 1 µM', 101);

From here, focus on the item given below.
Query: Given the entry `CC(C)(C)c1[nH]cnc1/C=c1\[nH]c(=O)/c(=C/c2ccccc2)[nH]c1=O` , report its measured remaining at 2 h, 1 µM.
Result: 109

----------
For each of the molecules below, state its remaining at 40 min, 50 µM.
test: Stability in rat liver microsomes at 50 uM after 40 mins in presence of NADPH by LC-MS/MS analysis; assay type: ADME, microsome; details: read-out: Stability
Answer format reminder: number followed by unit.

INSERT INTO results (smiles_str, parameter_measured, val) VALUES
  ('CC(C)(C)c1[nH]cnc1/C=c1\[nH]c(=O)/c(=C/c2ccccc2)[nH]c1=O', 'remaining at 40 min, 50 µM', '56.6%');

From here, focus on the item given below.
Query: Given the entry `[2H]/C(c1nc[nH]c1C(C)(C)C)=c1/[nH]c(=O)/c(=C/c2ccccc2)[nH]c1=O` , report its measured remaining at 40 min, 50 µM.
Result: 56.5%
